- measurement protocol: in vivo
- measurement setup: mouse, iv, 12.5 mg/kg
Peptide text beside a SMILES is read from it.
attribute measured: C0 (ng/mL)
Unit ng/mL implied. Number only.

Task item: Give recorded C0. C[C@H](NC(=O)[C@@H](N)CS)C(=O)N[C@@H](CCC(N)=O)C(=O)N[C@@H](CCCCN)C(N)=O [CAQK, cysteine-alanine-glutamine-lysine] (H-CAQK-NH2)
Reply: 45100

----------
- measurement protocol: in vivo
- measurement setup: mouse, iv, 12.5 mg/kg
Peptide text beside a SMILES is read from it.
attribute measured: Vd (L/kg)
Give the value, in units of L/kg, as a plain number.

Task item: Supply recorded Vd for C[C@H](NC(=O)[C@@H](N)CS)C(=O)N[C@@H](CCC(N)=O)C(=O)N[C@@H](CCCCN)C(N)=O [CAQK, cysteine-alanine-glutamine-lysine] (H-CAQK-NH2) here.
Reply: 1.9

----------
- measurement protocol: in vivo
- measurement setup: mouse, iv, 12.5 mg/kg
Peptide text beside a SMILES is read from it.
attribute measured: AUC(0-inf) (ng·h/mL)
Reply with just the number (in ng·h/mL).

Task item: Determine from records and report AUC(0-inf) for C[C@H](NC(=O)[C@@H](N)CS)C(=O)N[C@@H](CCC(N)=O)C(=O)N[C@@H](CCCCN)C(N)=O [CAQK, cysteine-alanine-glutamine-lysine] (H-CAQK-NH2)
Reply: 27800

----------
- measurement protocol: in vivo
- measurement setup: mouse, iv, 12.5 mg/kg
Peptide text beside a SMILES is read from it.
attribute measured: half-life (h)
Just the number please, in h, no unit attached.

Task item: Could you please provide reported half-life for C[C@H](NC(=O)[C@@H](N)CS)C(=O)N[C@@H](CCC(N)=O)C(=O)N[C@@H](CCCCN)C(N)=O [CAQK, cysteine-alanine-glutamine-lysine] (H-CAQK-NH2) ? Thanks!
Reply: 4.2

Entry source: paper PMC12603041
